- assay-system: hSSTR1 (Homo sapiens, UniProt P30872)
- Construct: expressed in transfected cells; host or cells: CHO-K1 (ATCC), pcDNA3.1, G418-selected clonal line; membranes
- Sequence (P30872 whole entry): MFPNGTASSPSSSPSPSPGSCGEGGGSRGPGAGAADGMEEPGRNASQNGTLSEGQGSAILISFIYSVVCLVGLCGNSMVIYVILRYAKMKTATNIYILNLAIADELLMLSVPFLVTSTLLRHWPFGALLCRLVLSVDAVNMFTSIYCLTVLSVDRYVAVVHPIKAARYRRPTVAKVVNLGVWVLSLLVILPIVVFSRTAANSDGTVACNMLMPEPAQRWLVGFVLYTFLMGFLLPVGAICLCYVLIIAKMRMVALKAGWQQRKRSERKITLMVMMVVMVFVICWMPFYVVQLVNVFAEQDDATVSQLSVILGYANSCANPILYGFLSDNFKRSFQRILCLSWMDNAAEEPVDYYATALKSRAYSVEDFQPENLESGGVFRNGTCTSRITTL
- measurement-protocol: Somatostatin receptor radioligand binding assay (hSSTR1)
Bridge positions count the residues as written; N and C are the ends. Square brackets hold non-standard residues; d marks the D form. Peptide text beside a SMILES is read from it. * marks the point of attachment. X2 = CN1C[C@H](CSCC(=O)*)C[C@@H]2c3cccc4[nH]cc(c34)C[C@H]21; 4Pal = N[C@@H](Cc1ccncc1)C(=O)O
List of Ki values.
experimental-readout: Ki (µM)

- C[C@@H](O)[C@@H]1NC(=O)[C@H](CCCCN)NC(=O)[C@@H](Cc2c[nH]c3ccccc23)NC(=O)[C@H](Cc2ccccc2)NC(=O)[C@H](Cc2ccccc2)NC(=O)[C@H](CCCNC(=N)N)NC(=O)[C@H](NC[C@H](Cc2ccc(O)cc2)NC(=O)CSC[C@@H]2C[C@@H]3c4cccc5[nH]cc(c45)C[C@H]3N(C)C2)CCCCNC(=O)[C@H](Cc2ccccc2)NC1=O [Compound 32]: 0.0053
- C[C@@H](O)[C@@H]1NC(=O)[C@H](CCCCN)NC(=O)[C@@H](Cc2c[nH]c3ccccc23)NC(=O)[C@H](Cc2ccncc2)NC(=O)[C@H](Cc2ccccc2)NC(=O)[C@H](CCCNC(=N)N)NC(=O)[C@H](NC(=O)CSC[C@@H]2C[C@@H]3c4cccc5[nH]cc(c45)C[C@H]3N(C)C2)CCCCNC(=O)[C@H](Cc2ccc(O)cc2)NC1=O [Compound 25] (X2-[dK]RF[4Pal][dW]KTY; lactam 1-C): 0.0419
- C[C@@H](O)[C@@H]1NC(=O)[C@H](CCCCN)NC(=O)[C@@H](Cc2c[nH]c3ccccc23)NC(=O)[C@H](Cc2ccncc2)NC(=O)[C@H](Cc2ccccc2)NC(=O)[C@H](CCCNC(=N)N)NC(=O)[C@H](NC[C@H](Cc2ccc(O)cc2)NC(=O)C[S+]([O-])C[C@@H]2C[C@@H]3c4cccc5[nH]cc(c45)C[C@H]3N(C)C2)CCCCNC(=O)[C@H](Cc2ccccc2)NC1=O (stereo partly drawn) [Compound 15]: 0.0644

Source listed as patent EP2914280B1.
